# target or system: non-opioid (naloxone-insensitive) receptors for β-endorphin on T lymphocytes from normal human blood (human)
# experiment description: radioligand saturation binding on human T lymphocytes, 4 °C, Scatchard analysis
*1 amine or outer side, *2 acyl side, *3 side chain or, on linkers, in order; H or OH if unused. Where no end group is shown, it is not given here. [ ]: non-standard residue; d: D form. Tyr(3-125I) = 3-[125I]iodotyrosine, O=C([C@H](Cc1ccc(O[*:3])c([125I])c1)N[*:1])[*:2]
outcome measure: Kd (pM)
Your answer is read as pM, so omit the unit and give the number.

Give recorded Kd. YGGFMTSEKSQTPLVTLFKNAIIKNA[Tyr(3-125I)]KKGE [(3-[125I]iodotyrosyl27)β-endorphin]
250
